- Tested on: P. falciparum NF54-pfs16-GFP late (IV-V) stage gametocytes
- test summary: relative % inhibition of viable gametocyte number; higher = more gametocytocidal
- study conditions: 5 µM; stage: late (IV-V) gametocyte; incubation 72 h
Quick rule: relative % inhibition of at least 20% means Criterion met, below that means Criterion not met.

Use the examples below as a reference point.
compound | group
CC1CCN(Cc2c(O)ccc3cc(-c4nc5ccccc5s4)c(=O)oc23)CC1 | Criterion not met
COc1cc(C(=O)Nc2ccc(-c3nc4ccccc4[nH]3)cc2)cc(OC)c1OC | Criterion not met
COCCNCC(O)Cn1c2ccc(Cl)cc2c2cc(Cl)ccc21 (stereo not given) | Criterion met
CC(NCc1ccccc1)c1cc(Cl)ccc1O (stereo not given) | Criterion met
Cc1cc(C)cc(Nc2cc(C)nc3nc(C(F)(F)F)nn23)c1 | Criterion not met
COc1ccc(-c2cn3c(C(=O)Nc4ccccc4Cl)c(-c4ccccc4)c4c3n2CCCC4)cc1 | Criterion met
C=C(C)CCC(C)N1CCC(N2CCC(C(=O)NCCc3ccccc3)CC2)CC1 (stereo not given) | Criterion not met
O=C(NC1CCN(Cc2ccccc2)CC1)c1cc(C(=O)NC2CCN(Cc3ccccc3)CC2)cc(C(=O)NC2CCN(Cc3ccccc3)CC2)c1 | Criterion met
O=C(NC1CCN(Cc2ccccc2)CC1)c1cc2nc(-c3ccc(Cl)s3)cc(C(F)(F)F)n2n1 | Criterion met

# next compound below
// query Is it the case that Cc1ccc(C2CC(C(F)(F)F)n3nc(C(=O)N4CCN(C(c5ccccc5)c5ccccc5)CC4)cc3N2)cc1 (stereo not given) has relative % inhibition reaching or exceeding 20%?
// result Criterion not met

* * *

- System: P. falciparum NF54-pfs16-GFP late (IV-V) stage gametocytes
- test summary: relative % inhibition of viable gametocyte number; higher = more gametocytocidal
- study conditions: 0.5 µM; stage: late (IV-V) gametocyte; incubation 72 h
value type: relative % inhibition (%)
A number alone suffices; assume %.

Examples from the recorded data:
compound | result unit | quantitative result
CCN(CC)c1ccc(NC(=O)c2cccs2)cc1 | % | 16.7
Cc1ccc2nc(C)cc(Nc3cccc(C(F)(F)F)c3)c2c1 | % | 26.7
N=c1n(CCN2CCCCC2)c2ccccc2n1CC(O)c1cccc(Br)c1 (centres undefined) | % | 25.5

The reported value for CC(C)(C)c1ccc2c(c1)CN(Cc1ccc(Cl)cc1)CO2 in terms of relative % inhibition is 27.3

So, CCCCNc1nc(NC(C)(C)C)nc(NC(C)(C)C)n1 ? Its relative % inhibition was 31.7

Form: compound = Cc1cc(Nc2cccc(F)c2)nc(NCc2ccccc2)n1 ; relative % inhibition = 24.1

Just so you know, measured relative % inhibition for COc1ccccc1N1C(=N)SC(=Cc2ccc(OCc3ccccc3F)cc2)C1=O came out at 32.6

Measured relative % inhibition, O=C(CCl)NCCOc1ccc(Cl)cc1Cl : 8.06

The recorded relative % inhibition for entry CCOc1c(Cl)cc(CNCC(O)c2ccccc2)cc1OC (centres undefined) equals 36.5

For reference, reported relative % inhibition for O=C(Nc1cccc(-c2nc3ccccc3[nH]2)c1)c1cccc(NC(=O)c2ccco2)c1 stands at -1.52

Note to self: relative % inhibition recorded for CCOC(=O)c1cnc2ccc(Cl)cc2c1NCCCN(C)C was -21.7

# relative % inhibition of O=C1c2ccccc2C2=Nc3ccccc3SC(c3cccc(F)c3)C12 (centres undefined) = 43.7
